Across several studies, molecules have been characterized by their Ki on 5-hydroxytryptamine receptor 1A (Rattus norvegicus); a selection follows.
Biological target: 5-hydroxytryptamine receptor 1A (Rattus norvegicus)
Sequence (P19327 whole entry): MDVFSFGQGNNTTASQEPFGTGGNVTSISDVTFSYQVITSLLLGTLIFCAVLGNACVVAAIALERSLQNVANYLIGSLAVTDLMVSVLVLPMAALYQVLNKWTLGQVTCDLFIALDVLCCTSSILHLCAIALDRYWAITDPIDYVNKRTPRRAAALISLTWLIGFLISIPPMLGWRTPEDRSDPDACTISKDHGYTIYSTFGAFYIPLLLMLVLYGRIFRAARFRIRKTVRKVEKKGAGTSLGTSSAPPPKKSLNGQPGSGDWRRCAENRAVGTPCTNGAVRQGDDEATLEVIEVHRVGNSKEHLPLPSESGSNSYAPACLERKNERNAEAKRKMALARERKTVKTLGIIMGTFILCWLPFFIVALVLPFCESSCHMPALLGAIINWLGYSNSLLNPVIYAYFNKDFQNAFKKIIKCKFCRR
experimental-endpoint: Ki (nM)

// worked examples, Ki included
O=c1oc2cc(OCCCCN3CCN(c4ccccn4)CC3)ccc2c2c1CCC2	1260
COc1ccccc1N1CCN(CCCn2nc(-n3ccc4ccccc43)ccc2=O)CC1	103
COc1ccccc1N1CCN(CCN(C(=O)c2ccc(CCl)cc2)c2ccccn2)CC1	3.5
Cn1c(=O)c2c(nc(N3CCOCC3)n2CCCCN2CCN(c3cccc(Cl)c3)CC2)n(C)c1=O	22

I = Cc1cn2c3c(=O)n(C)c(=O)n(C)c3nc2n1CCCCCN1CCN(c2ccc(Cl)c(Cl)c2)CC1
II = O=C1c2ccccc2S(=O)(=O)N1CCCCN1CCN(c2cccc3c2OCCO3)CC1
III = COc1ccc(-c2ccccc2)cc1OCCNC[C@H]1COc2ccccc2O1
IV = CC1CC2(C)CC(=O)C1C1C(=O)N(CCCN3CCN(c4ccccc4)CC3)C(=O)C12 (stereo not given)
Q: Order the records so the highest Ki appears first and the lowest last. Sort and list the labels as requested.
Ans: IV, III, I, II
(IV: 344 nM, III: 52.5 nM, I: 22 nM, II: 0.288 nM)

---

Target: 5-hydroxytryptamine receptor 1A (Rattus norvegicus, UniProt P19327)
Sequence (P19327 whole entry): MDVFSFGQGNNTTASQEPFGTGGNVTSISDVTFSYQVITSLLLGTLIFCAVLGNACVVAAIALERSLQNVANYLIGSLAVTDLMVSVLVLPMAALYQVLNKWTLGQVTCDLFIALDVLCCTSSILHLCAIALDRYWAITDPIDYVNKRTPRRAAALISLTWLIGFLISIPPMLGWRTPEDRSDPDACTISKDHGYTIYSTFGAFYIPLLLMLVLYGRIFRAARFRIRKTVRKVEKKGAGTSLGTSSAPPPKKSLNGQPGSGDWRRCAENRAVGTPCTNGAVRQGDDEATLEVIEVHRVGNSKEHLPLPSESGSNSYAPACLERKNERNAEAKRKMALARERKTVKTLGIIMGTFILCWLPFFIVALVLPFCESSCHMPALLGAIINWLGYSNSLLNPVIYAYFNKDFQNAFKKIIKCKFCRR
Across several studies, compounds have been characterized by their Ki on 5-hydroxytryptamine receptor 1A (Rattus norvegicus, UniProt P19327); a selection follows.
experimental-endpoint: Ki (µM)

Cn1c(=O)c2c(ncn2CCCN2CCN(c3ccccc3)CC2)n(C)c1=O	0.571
COc1ccccc1N1CCN(CCCCCc2ccccc2)CC1	0.00562
Cc1cc(=O)oc2cc(OCCCN3CCC(c4noc5cc(F)ccc45)CC3)ccc12	0.328
O=C1c2ccccc2CCCN1CCN1CCC(n2c(=O)[nH]c3cc(F)ccc32)CC1	0.479
CCc1cccc(OCCNCCCCN2C(=O)C3CCCN3C2=O)c1 (stereo unspecified)	0.03

a = Cn1c(=O)c2c(nc3n(CCCCCN4CCN(c5ccc(Cl)cc5)CC4)ccn23)n(C)c1=O
b = CC(C)Oc1ccccc1N1CCN(Cc2ccc(CN(C(=O)C(C)C)C(C)C)n2C)CC1.O=C(O)CCC(=O)O
c = COc1ccccc1N1CCN(CCCN2CC3CCCCN3C2)CC1 (stereo unspecified)
d = Cn1c(=O)sc2cc(CCCCN3CCN(Cc4ccc(Cl)c(Cl)c4)CC3)ccc21
Q: Order the records so the highest Ki appears first and the lowest last. Sort and list the labels as requested.
Ans: d, a, c, b
(d: 0.3 µM, a: 0.073 µM, c: 0.0139 µM, b: 0.0019 µM)

1 = O=c1oc2cc(OCCCCN3CCN(c4cccc(C(F)(F)F)c4)CC3)ccc2c2c1CCC2
2 = COc1ccc(CCCCNCCOc2cc(F)cc3c2OCC=C3)cc1
Q: # query: argmin of Ki over 1 and 2 Selection: enter the item's label.
Ans: 2

A = CCCN(CCN1C(=O)CC2(CCCC2)CC1=O)C1COc2cccc(OC)c2C1 (stereo unspecified)
B = CCCN(CCC)[C@H]1CCc2cccc(-c3ccco3)c2[C@H]1C
C = O=C1c2ccccc2CN1CCCCN1CCC(c2ccc(Cl)cc2)C1 (stereo unspecified)
D = O=C(NCCN1CCN(c2ccc(Cl)c(Cl)c2)CC1)c1ccccn1
Q: Order the records so the highest Ki appears first and the lowest last. Sort and list the labels as requested.
Ans: B, C, A, D
(B: 0.044 µM, C: 0.0304 µM, A: 0.0151 µM, D: 0.000183 µM)

---

Target: 5-hydroxytryptamine receptor 1A (Rattus norvegicus, UniProt P19327)
Sequence (P19327 whole entry): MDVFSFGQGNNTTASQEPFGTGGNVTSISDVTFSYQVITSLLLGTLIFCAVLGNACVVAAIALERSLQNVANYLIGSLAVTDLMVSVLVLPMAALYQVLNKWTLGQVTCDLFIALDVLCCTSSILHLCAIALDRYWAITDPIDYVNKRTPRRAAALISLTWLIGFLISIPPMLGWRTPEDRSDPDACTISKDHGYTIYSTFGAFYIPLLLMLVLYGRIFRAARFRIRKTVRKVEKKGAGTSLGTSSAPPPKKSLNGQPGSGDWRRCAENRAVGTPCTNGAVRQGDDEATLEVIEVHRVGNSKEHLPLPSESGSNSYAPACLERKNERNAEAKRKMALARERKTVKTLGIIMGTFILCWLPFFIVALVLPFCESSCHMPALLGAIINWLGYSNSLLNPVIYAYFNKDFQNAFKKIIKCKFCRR
Across several studies, molecules have been characterized by their Ki on 5-hydroxytryptamine receptor 1A (Rattus norvegicus, UniProt P19327); a selection follows.
experimental-endpoint: Ki (nM)

// worked examples, Ki included
CCCc1ccc(C(=O)N(CCN2CCN(c3ccccc3OC)CC2)c2ccccn2)cc1	10.3
COc1ccc2c(c1OCCNC[C@@H]1COc3ccccc3O1)OCC2	162
COc1ccc2[nH]cc(C3CCN(CCN4C(=O)CC(c5c[nH]c6ccccc56)C4=O)CC3)c2c1 (racemic)	352
Cl.O=S(=O)(NCCCCN1CCN(c2cccc(Cl)c2)CC1)c1cnc2ccc(Cl)cc2c1	208

1 = c1ccc(N2CCN(C3CCC(Nc4ncccn4)CC3)CC2)cc1 (stereo in doubt; 19)
2 = CCS(=O)(=O)Nc1cccc(N2CCN(CCCCN3C(=O)C4CCCN4C3=O)CC2)c1.Cl (stereo not given)
3 = CC(=O)NCc1ccc(CN2CCN(c3ccccc3)CC2)cc1
4 = O=c1ccc(OCCCN2CCC(c3noc4cc(F)ccc34)CC2)nn1-c1ccc(F)cc1F
Q: Rank the items in ascending order with respect to Ki. Sort and list the labels as requested.
Ans: 2, 4, 3, 1

I = Nc1nc(-c2ccc(CCCCN3CCN(c4ccccc4)CC3)cc2)cs1
II = O=C(N[C@H]1CC[C@H](CCN2CCN(c3ccccc3)CC2)CC1)C1CCCCC1
III = CO[C@@]1(C)c2cccc3c2-c2c1ccc1c2[C@@H](C3)N(C)CC1
IV = O=C(CCN1CCC(c2noc3cc(F)ccc23)CC1)c1cc2c3c(c1)CCC(=O)N3CCC2
Q: Order the records so the highest Ki appears first and the lowest last. Sort and list the labels as requested.
Ans: II, IV, III, I
(II: 5300 nM, IV: 62.9 nM, III: 17 nM, I: 3.8 nM)

---

Target: 5-hydroxytryptamine receptor 1A (Rattus norvegicus)
Sequence (P19327 whole entry): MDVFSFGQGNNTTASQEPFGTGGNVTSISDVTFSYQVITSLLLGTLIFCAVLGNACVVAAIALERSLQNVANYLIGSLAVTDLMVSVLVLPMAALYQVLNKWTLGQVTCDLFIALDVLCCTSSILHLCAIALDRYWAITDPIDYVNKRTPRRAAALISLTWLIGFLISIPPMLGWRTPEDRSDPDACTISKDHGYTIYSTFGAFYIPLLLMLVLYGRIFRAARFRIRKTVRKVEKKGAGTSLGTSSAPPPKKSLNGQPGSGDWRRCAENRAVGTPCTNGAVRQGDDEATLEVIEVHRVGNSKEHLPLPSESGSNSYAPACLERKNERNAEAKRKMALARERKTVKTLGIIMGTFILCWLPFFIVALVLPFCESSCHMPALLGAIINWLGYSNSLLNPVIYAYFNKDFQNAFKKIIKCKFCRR
pKi: −log10 of the molar value.
Across several studies, compounds have been characterized by their pKi on 5-hydroxytryptamine receptor 1A (Rattus norvegicus); a selection follows.
experimental-endpoint: pKi

// worked examples, pKi included
Clc1ccc(-n2cc(COCCCN3CCN(c4ccccc4)CC3)cn2)cc1	6.51
CCCN(CCCCN1C(=O)CC2(CCCC2)CC1=O)[C@@H]1CCc2c(F)ccc(-c3ccco3)c2C1	8.96
CN(C)CCSc1cccc(Br)c1	6.17
COc1cccc(OCCNCCCCN2C(=O)C3CCCN3C2=O)c1 (stereo unspecified)	7.47

I = O=c1ccc(-n2ccc3ccccc32)nn1CCCCN1CCN(c2ccc3c(c2)OCCO3)CC1
II = CCCCS(=O)(=O)N(C)Cc1ccc(CN2CCN(c3ccccc3OC)CC2)n1C.O=C(O)CCC(=O)O
Q: # query: argmin of pKi over I and II Selection: enter the item's label.
Ans: I

a = COc1ccc(/C=C2/C(=O)N(CCCN3CCN(c4cccc(Cl)c4)CC3)c3ccccc32)cc1
b = COc1ccccc1N1CCN(CCCCn2nnc3ccccc32)CC1
c = O=C(c1ccc(F)c(Cl)c1)N1CCC(F)(CNCc2nccc(-c3ccco3)n2)CC1
d = O=C1C2CCCCN2C(=O)N1CCCN1CCN(c2ccccc2)CC1 (stereo unspecified)
Q: Order the records so the highest pKi appears first and the lowest last. Sort and list the labels as requested.
Ans: c, b, d, a
(c: 9.37, b: 7.77, d: 6.81, a: 6.27)
